- experimental-target: dopaminergic receptors D2 (Homo sapiens, UniProt P14416)
- Sequence (P14416 whole entry): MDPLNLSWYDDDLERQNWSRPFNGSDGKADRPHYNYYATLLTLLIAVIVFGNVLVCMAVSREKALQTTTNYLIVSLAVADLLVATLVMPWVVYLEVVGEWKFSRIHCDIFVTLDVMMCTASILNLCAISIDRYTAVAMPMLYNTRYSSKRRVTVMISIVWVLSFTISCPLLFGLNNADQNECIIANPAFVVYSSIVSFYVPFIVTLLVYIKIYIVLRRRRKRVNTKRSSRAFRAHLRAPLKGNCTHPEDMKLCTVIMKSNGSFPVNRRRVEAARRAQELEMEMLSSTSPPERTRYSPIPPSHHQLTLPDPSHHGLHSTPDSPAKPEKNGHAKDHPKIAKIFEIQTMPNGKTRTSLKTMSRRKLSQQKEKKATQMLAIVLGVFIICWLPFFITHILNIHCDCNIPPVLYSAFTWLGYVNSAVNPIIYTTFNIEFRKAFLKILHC
- assay-protocol: Radioligand binding assay, dopaminergic D2 receptors
- applied-conditions: binding assay, test compound 1×10^−6 M
# maps each entry to its inhibition at 1 µM
Use % as the unit, but write only the number.

>>> df
                                   compound  unit_abbrev  reported_result
0  Cn1ccc2c(S(=O)(=O)NC3CCN(CCCc4noc5cc(F)ccc45)C3)cccc21 (centres unmarked)            %               96

Form: compound = "O=S(=O)(NCC1CN(CCOc2cccc3ccccc23)C1)c1cc2ccccc2s1" ; inhibition at 1 µM = 73

Form: compound = "O=S(=O)(NCC1CN(CCOc2cccc3c2OCCO3)C1)c1ccc(Cl)c(Cl)c1" ; inhibition at 1 µM = 92

Form: compound = O=S(=O)(NCC1CCN(CCOc2cccc3c2OCCO3)C1)c1ccc2c(c1)CCO2 (centres unmarked) ; inhibition at 1 µM = 51
